Where these numbers come from: PubChem BioAssay (EPA / NIEHS)

Read-out: Transforming Growth Factor (TGFA), TGFA (gene 7039)
method_notes: LTEA_HepaRG_TGFA: Life Technologies and Expression Analysis (LTEA) Assay for Transforming Growth Factor (TGFA) using HepaRG (AID 2283532)
run_parameters: mRNA level, 48 h; actives raise or lower the signal
Activity calls are given as the source filed them. The calls were made as follows: active = hit-call score of the fitted dose curve at least 0.9, where 1 is the maximum; inactive = score below 0.9.
Outcome (select one): active, inactive

- smiles_text: "Cc1nccn1-c1ccc(Sc2cccc(C3(C(N)=O)CCOCC3)c2)cc1"
  cat: "active"
- smiles_text: "CCCCOC(=O)c1ccccc1"
  cat: "inactive"
- smiles_text: "Cc1ccc(S(=O)(=O)NC(=O)NN2CCCCCC2)cc1"
  cat: "inactive"

QUERY: Record request — test call for "CCCCCCCCCCCCCCO"
RESULT: inactive

QUERY: Would you kindly repeat that for "CCCCCCCC/C=C\CCCCCCCC(=O)OC[C@@H](O)[C@H]1OC[C@H](O)[C@H]1O" ?
RESULT: inactive

QUERY: Next record, please: "NC(=O)N(O)[C@@H]1COc2cc(OCc3ccccc3)ccc21"
RESULT: inactive

QUERY: Same read-out for "c1ccc2cc3ccccc3cc2c1" ?
RESULT: inactive

QUERY: Check "OCCNCCO" too.
RESULT: inactive

###

method_notes: BSK_3C_VCAM1: BioMAP Diversity Plus: 3C Assay for Vascular cell adhesion molecule 1 (VCAM1) Biomarker Activity (AID 2282999)
run_parameters: BioMAP 3C HUVEC, VCAM1 ELISA, cytokine-stimulated; actives raise or lower the signal
Active and inactive are the calls of the source. How the source made its calls: active means hit-call score of the fitted dose curve at least 0.9, where 1 is the maximum; inactive means score below 0.9.
Could you please pick one outcome from this set? y (active), n (inactive)

- compound: "CCCCCOC(C)=O"
  cat: "n"
- compound: "CCn1nc(C)c2c1C(=O)NCC(c1ccc(O)cc1)=N2"
  cat: "n"

QUERY: Test call, this compound: CC(C)CC(C)O (stereo unspecified)
RESULT: n

###

Read-out: Heat shock 70 kDa protein 1 (HSPA1A), gene 3303
method_notes: LTEA_HepaRG_HSPA1A: Life Technologies and Expression Analysis (LTEA) Assay for Heat shock 70 kDa protein 1 (HSPA1A) using HepaRG (AID 2283502)
run_parameters: mRNA level, 48 h; actives raise or lower the signal
Protocol: LTEA_HepaRG is a cell based, multiplexed-readout assay that uses HepaRG, a human liver cell line, with measurements taken at 48 hours after chemical dosing on a 96-well plate.LTEA_HepaRG_HSPA1A is one of 102 assay component(s) measured in the LTEA HepaRG cell culture assay. It is a marker of Oxidative Stress.Data from the assay component LTEA_HepaRG_HSPA1A was analyzed into 1 endpoint. […]
Calls of active or inactive are those of the source. How the source made its calls: active means hit-call score of the fitted dose curve at least 0.9, where 1 is the maximum; inactive means score below 0.9.
reported_metric: AC50

Worked cases, answers included:
- smiles_text: "O=C(O)c1cccc(C[C@@H]2COc3ccc(OCc4nc5cc(F)ccc5s4)cc3[C@@H]2O)c1"
  AC50: "89.2 µM (active)"
- smiles_text: "CNC(C)=O"
  AC50: "inactive"
- smiles_text: "CCOc1ccc2[nH]cc(C(=O)NCc3ccccc3)c(=O)c2n1"
  AC50: "inactive"
- smiles_text: "c1ccc2cc3ccccc3cc2c1"
  AC50: "inactive"

QUERY: Please look up its AC50: "O=C(O)c1ccc2c(c1)nc(C(=O)NC1CCN(C3CC3)CC1)n2Cc1cc(-c2ccc(Cl)s2)on1"
RESULT: inactive
